Values from patent US6825230B2

For each entry below, report its Survival (days) 10 mg/kg SSV po value.
system: ANKA strain of P. berghei; assay: Single dose STI in vivo screen in infected mice; set-up: species or system Plasmodium berghei; conditions: single 10 mg/kg po in SSV; untreated 6-7 days
Report as: number unit

Incoming: API: value(readout= Survival (days) 10 mg/kg SSV po, system= ANKA strain of P. berghei, query= O=C(O)C1(C(=O)O)COC2(CCC3(CC2)OOC2(O3)C3CC4CC(C3)CC2C4)OC1 (centres unmarked) )
Outgoing: 5.3 days

Incoming: API: value(readout= Survival (days) 10 mg/kg SSV po, system= ANKA strain of P. berghei, query= C1C2CC3CC1CC(C2)C31OO[C@]2(CC[C@@H](CNC3CC3)CC2)O1 (some centres unmarked) )
Outgoing: 6.7 days

Incoming: API: value(readout= Survival (days) 10 mg/kg SSV po, system= ANKA strain of P. berghei, query= Fc1ccc(NC2CCC3(CC2)OOC2(O3)C3CC4CC(C3)CC2C4)cc1 (centres unmarked) )
Outgoing: 10.3 days

Incoming: API: value(readout= Survival (days) 10 mg/kg SSV po, system= ANKA strain of P. berghei, query= CC(C)(CO)NC(=O)[C@H]1CC[C@]2(CC1)OOC1(O2)C2CC3CC(C2)CC1C3 (some centres unmarked) )
Outgoing: 5.7 days

Incoming: API: value(readout= Survival (days) 10 mg/kg SSV po, system= ANKA strain of P. berghei, query= O=[N+]([O-])c1cccc(C2(c3cccc([N+](=O)[O-])c3)OOC3(O2)C2CC4CC(C2)CC3C4)c1 (centres unmarked) )
Outgoing: 5.7 days

Incoming: API: value(readout= Survival (days) 10 mg/kg SSV po, system= ANKA strain of P. berghei, query= O=C(NC[C@H]1CC[C@]2(CC1)OOC1(O2)C2CC3CC(C2)CC1C3)c1ccc(O)nc1 (some centres unmarked) )
Outgoing: 8.3 days

Incoming: API: value(readout= Survival (days) 10 mg/kg SSV po, system= ANKA strain of P. berghei, query= CC(=O)NC[C@H]1CC[C@]2(CC1)OOC1(O2)C2CC3CC(C2)CC1C3 (some centres unmarked) )
Outgoing: 12.3 days

Incoming: API: value(readout= Survival (days) 10 mg/kg SSV po, system= ANKA strain of P. berghei, query= "NC1CCN(C(=O)C[C@H]2CC[C@]3(CC2)OO[C@]2(O3)C3CC4CC(C3)CC2C4)CC1" )
Outgoing: 10.2 days
